System: arylhydroxamic acid N,O-acyltransferase (Mesocricetus auratus)
Experiment: Tested for its arylhydroxamic acid N,O-Acyltransferase (AHAT) catalyzed transacetylation of aminoazobenzene with partially purified hepatic enzyme in hamster
Design: unit not given here
measured.parameter: Rate

Answered examples (3):
smiles.notation	Rate
C/C=C/c1ccc(N(O)C(C)=O)cc1	13
CC(=O)N(O)c1ccc(C=C(C)C)cc1	13.1
CCCc1ccc(N(O)C(C)=O)cc1	5.3

// Rate (arylhydroxamic acid N,O-acyltransferase (Mesocricetus auratus)) for CCCCCc1ccc(N(O)C(C)=O)cc1 = 13.8

// Rate (arylhydroxamic acid N,O-acyltransferase (Mesocricetus auratus)) for CC(=O)N(O)c1ccc(-c2ccccc2)cc1 = 22.4

// Rate (arylhydroxamic acid N,O-acyltransferase (Mesocricetus auratus)) for CC(=O)N(O)c1ccccc1 = 0.6

// Rate (arylhydroxamic acid N,O-acyltransferase (Mesocricetus auratus)) for CCc1ccc(N(O)C(C)=O)cc1 = 3.5

// Rate (arylhydroxamic acid N,O-acyltransferase (Mesocricetus auratus)) for CC(=O)N(O)c1ccc(C)cc1 = 2.1

// Rate (arylhydroxamic acid N,O-acyltransferase (Mesocricetus auratus)) for C=Cc1ccc(N(O)C(C)=O)cc1 = 6.6

// Rate (arylhydroxamic acid N,O-acyltransferase (Mesocricetus auratus)) for CCCCc1ccc(N(O)C(C)=O)cc1 = 8.8

Where do the numbers come from? From ChEMBL document CHEMBL1122066.
